B1: USP39 (parent)
chain: FVEKNPTIVNFPITNVDLREYLSE

Variants of: B1
Test: protein stability index of a GFP-peptide fusion (GPS, HEK-293T) (PSI 1-6); higher = more stable;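 also: lentivirally expressed fusions sorted by FACS into six bins by GFP to DsRed ratio, PSI derived from sequencing read proportions per bin multiplied by bin number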
Conditions: c terminus: a fixed tail appended
Threshold rule: protein stability index greater than or equal to 2 is true; below that, false.

INSERT INTO results (residues, category_label) VALUES
  ('FVFKNPTIVNFPITNVDLREYLSE [E3F]', 'true'),
  ('FVEKNPTIVNFPITNVDLRELLSE [Y21L]', 'true'),
  ('FVWKNPTIVNFPITNVDLREYLSE [E3W]', 'false'),
  ('FVEKNPTIFNFPITNVDLREYLSE [V9F]', 'false'),
  ('FVEKNPTIVNFPITNVDLWEYLSE [R19W]', 'true'),
  ('FVEKNPTIVNFPITNVDLREYLKE [S23K]', 'true'),
  ('FVEFNPTIVNFPITNVDLREYLSE [K4F]', 'false'),
  ('FVEKSPTIVNFPITNVDLREYLSE [N5S]', 'true'),
  ('FVEKNPTIVNGPITNVDLREYLSE [F11G]', 'true'),
  ('FVEKNPTVVNFPITNVDLREYLSE [I8V]', 'false'),
  ('FVEDNPTIVNFPITNVDLREYLSE [K4D]', 'true'),
  ('FVEKNPTIVNFPITNVDLREPLSE [Y21P]', 'false'),
  ('FVEKNPTIVNFPITNNDLREYLSE [V16N]', 'false'),
  ('PVEKNPTIVNFPITNVDLREYLSE [F1P]', 'true'),
  ('FVEKNPTIVNFPITNVTLREYLSE [D17T]', 'false'),
  ('FVEKEPTIVNFPITNVDLREYLSE [N5E]', 'false'),
  ('FVEMNPTIVNFPITNVDLREYLSE [K4M]', 'false'),
  ('FVEKNTTIVNFPITNVDLREYLSE [P6T]', 'true'),
  ('FVELNPTIVNFPITNVDLREYLSE [K4L]', 'true'),
  ('FVEKNPTIVNFPITNVFLREYLSE [D17F]', 'true'),
  ('FVEKNPTIVNFRITNVDLREYLSE [P12R]', 'true');

Numbers sourced from the supplement of paper PMC10567573.
